Could you please report measured log10 LC retention time for the items listed next?
- Protocol Details: HILIC, Waters ACQUITY UPLC BEH Amide, 150 × 2.1 mm, 1.7 µm, 40 °C, 0.5 mL/min, estimated dead time 0.66 min; A: 5% water + 95% acetonitrile; B: 70% water + 30% acetonitrile + 10 mM ammonium formate, pH 6.5; gradient (min/%B) 0/0 2/0 20/70 23/70 24/0 31/0
- Settings: stereoisomer not certain
Scale: log10; quantity: LC retention time; unit before log: min

Which log10 LC retention time is listed for C=CC1=C(C)C(C=c2[nH]c(=Cc3[nH]c(C=C4NC(=O)C(C)=C4C=C)c(C)c3CCC(=O)O)c(CCC(=O)O)c2C)=NC1=O [BILIVERDIN] ?
0.05

Query NC(=O)CC(N)C(=O)O (stereo not given) [ASPARAGINE] next
1.06

Query O=C(O)CCCCCCCCCCCO [OMEGA-HYDROXYDODECANOATE] next
-0.08

Query COC(=O)CC(C)=O [METHYL ACETOACETATE] next
0.21

Query NC(CC(=O)O)C(=O)O (stereo not given) [ASPARTATE] next
0.29

====

- Protocol Details: HILIC, Merck SeQuant ZIC-pHILIC, 150 × 2.1 mm, 5 µm, 40 °C, 0.3 mL/min, estimated dead time 1.1 min; A: acetonitrile; B: water + 2.8 mM ammonium formate, pH 9; gradient (min/%B) 0/5 1/5 10/51 13/51 13.1/5 20/5
- Settings: stereoisomer not certain
Could you please report measured LC retention time for the items listed next?
Hi! Could you send only the number? It should be in min, unit omitted.

Which LC retention time is listed for Nc1ncnc2c1ncn2C1CC(O)C(CO)O1 (stereo unspecified) ?
5.19

Query Nc1ccn(C2CC(O)C(COP(=O)(O)O)O2)c(=O)n1 (stereo unspecified) [DEOXYCYTIDINE MONOPHOSPHATE] next
8.61

Query O=c1ccn(C2OC(CO)C(O)C2O)c(=O)[nH]1 (stereo unspecified) next
6.2

Query O=C(O)c1ccccc1 [BENZOATE] next
1.41

Query O=C(C=Cc1ccc(O)c(O)c1)OC(Cc1ccc(O)c(O)c1)C(=O)O (stereo unspecified) [ROSMARINATE] next
7.55

Query NC(CCS)C(=O)O (stereo unspecified) next
9.91

====

- Protocol Details: HILIC, Merck SeQuant ZIC-pHILIC, 150 × 2.1 mm, 5 µm, 40 °C, 0.3 mL/min, estimated dead time 1.1 min; A: acetonitrile; B: water + 2.8 mM ammonium formate, pH 9; gradient (min/%B) 0/5 1/5 10/51 13/51 13.1/5 20/5
- Settings: stereoisomer not certain
Exam item: assign Criterion met to entries whose LC retention time is below 5 min and Criterion not met to entries at or above 5 min. Note that a value of exactly 5 min receives Criterion not met.

In the record for O=C([O-])C=CC(=O)[O-] [MALEATE] , is LC retention time less than 5 min?
Criterion met

Query Cc1ncc(CO)c(C=O)c1O [PYRIDOXAL] next
Criterion met

Query Cc1c[nH]c(=O)[nH]c1=O [THYMINE] next
Criterion met

Query O=c1[nH]c(=O)c2nccnc2[nH]1 [2,4-DIHYDROXYPTERIDINE] next
Criterion met

Query CC(O)C(=O)O (configuration not stated) [LACTATE] next
Criterion met

Query O=C(O)Cc1ccc(O)c(O)c1 [3,4-DIHYDROXYPHENYLACETATE] next
Criterion not met

Query NC(CCSSCCC(N)C(=O)O)C(=O)O (configuration not stated) [HOMOCYSTINE] next
Criterion not met

Query O=P(O)(O)OCC1OC(O)(COP(=O)(O)O)C(O)C1O (configuration not stated) [FRUCTOSE BISPHOSPHATE] next
Criterion not met

Query Nc1ccn(C2CC(O)C(COP(=O)([O-])OP(=O)([O-])[O-])O2)c(=O)n1 (configuration not stated) [DEOXYCYTIDINE-DIPHOSPHATE] next
Criterion not met

Query NC(=O)[C@@H](N)Cc1c[nH]c2ccccc12 [L-TRYPTOPHANAMIDE] next
Criterion not met

Query CC(=O)NC(CO)C(=O)O (configuration not stated) [N-ACETYLSERINE] next
Criterion not met

Query NCCP(=O)(O)O [(2-AMINOETHYL)PHOSPHONATE] next
Criterion not met

Query Nc1nc2c(ncn2C2CC(O)C(COP(=O)(O)O)O2)c(=O)[nH]1 (configuration not stated) [DEOXYGUANOSINE-MONOPHOSPHATE] next
Criterion not met

Query O=CC[C@@H](O)[C@H](O)[C@H](O)CO [2-DEOXY-D-GLUCOSE] next
Criterion not met

Query CSCCC(O)C(=O)O (configuration not stated) [2-HYDROXY-4-(METHYLTHIO)BUTANOATE] next
Criterion met

Query CN(CC(=O)O)C(=N)N [CREATINE] next
Criterion not met

Query Nc1nc2c(ncn2C2CC(O)C(CO)O2)c(=O)[nH]1 (configuration not stated) [DEOXYGUANOSINE] next
Criterion not met

Query O=C(O)c1ccc(=O)[nH]c1 [6-HYDROXYNICOTINATE] next
Criterion not met

Query Cn1c(=O)[nH]c2ncn(C)c2c1=O [PARAXANTHINE] next
Criterion met

Query NC(CCO)C(=O)O (configuration not stated) [HOMOSERINE] next
Criterion not met

Query NC(=O)CCC(N)C(=O)O (configuration not stated) [GLUTAMINE] next
Criterion not met

From: the RepoRT retention time repository (doi:10.1016/j.chroma.2019.01.023)
